assay-remarks: in vitro
measurement-setup: human, hela cells, % viability
Some compounds, each annotated with its measured viability at 28.5 h, 10 µM.
reported-property: viability at 28.5 h, 10 µM (%)

compound: O=[N+]([O-])c1ccc(CN2CCN(Cc3cccnc3)CC2)cc1 [CBK263161]
result: 109
--
compound: CCOC(=O)N1CCC(NC(=O)N2CCCCC2CO)CC1 (centres unmarked) [CBK155991]
result: 106
--
compound: CCC(=O)Nc1ccccc1C(=O)C(=O)O [CBK219398]
result: 120
--
compound: CCCc1[nH]n(CCc2ccccc2)c(=O)c1Cc1c(Cl)cccc1Cl [CBK112499]
result: 99.8
--
compound: O=S(=O)(NCc1ccco1)N1CCOCC1 [CBK268749]
result: 90.2
--
compound: O=C1NCC(C2CCN(Cc3ccccc3)CC2)Oc2ccccc21 (centres unmarked) [CBK282314]
result: 85.9
--
compound: Nc1ncnc(NCCCc2ccccc2)c1[N+](=O)[O-] [CBK267261]
result: 88.9
--
compound: CC(=O)N[C@H]1C[C@@H](Cc2cc(CN3CCN(c4ccccc4)CC3)on2)C1(C)C [CBK289241]
result: 109
--
compound: Cn1c(CNc2ccc(C(=O)O)cc2)nc2ccccc21 [CBK262501]
result: 95.1
--
compound: COc1cc(C(=O)NCCN2CCCC2)ccc1Nc1cncc(-c2ccc(O)cc2)n1 [CBK122661]
result: 96
--
compound: c1ccc(Cc2csc(C3CN4CCCC4CO3)n2)cc1 (centres unmarked) [CBK304202]
result: 90.2
--
compound: CS(=O)(=O)N1CCCc2cc(C(=O)O)ccc21 [CBK287072]
result: 93
--
compound: O=C1CC2(CCN(C(=O)c3ccc4cc[nH]c4c3)CC2)Oc2ccc(CN3CCOCC3)cc21 [CBK169469]
result: 121
--
compound: CCOc1ccc(N)cc1S(N)(=O)=O [CBK010112]
result: 93.2
--
compound: Cc1csc2c(C3CCN(C(=O)c4ccncc4)CC3)nc(C)n12 [CBK285243]
result: 84.4
--
compound: OCCN1CCN(c2nnc(-c3ccccc3)cc2-c2ccccc2)CC1 [CBK270045]
result: 86.2
--
compound: O=C(Nc1cnc(-c2ccc(F)c(Cl)c2)c(-c2cccnc2)n1)c1cnccn1 [CBK036819]
result: 102
--
compound: Cc1cc(Oc2ccc(Cl)cc2Cl)nc(OCC#N)n1 [CBK019232]
result: 96.9
--
compound: NS(=O)(=O)c1ccc(NC(=O)c2cc([N+](=O)[O-])ccc2N2CCOCC2)cc1 [CBK268972]
result: 101
--
compound: O=C(Nc1cccc2ccccc12)O[C@@H]1CO[C@H]2[C@@H]1OC[C@@H]2NC(=O)c1cccs1 [CBK289468]
result: 103

###

Some compounds, each annotated with its measured viability at 28.5 h, 10 µM.
assay-remarks: in vitro
measurement-setup: human, hela cells, % viability

compound: CC(C)[C@@H](CO)Nc1cc(-c2cccc(Br)c2)nc2ccnn12
viability at 28.5 h, 10 µM [%]: 93.9

compound: N#C/C(=C\c1ccc(-c2ccc(S(N)(=O)=O)cc2)o1)c1nc2ncc(Br)cc2[nH]1
viability at 28.5 h, 10 µM [%]: 97.6

compound: O=C(NCc1ccncc1)c1cc(-c2ccc(Cl)cc2)on1
viability at 28.5 h, 10 µM [%]: 85.7

compound: Cc1c(Cc2ccccc2)c(=O)oc2c(CN3CCCC(C)C3)c(O)ccc12 (stereo not drawn)
viability at 28.5 h, 10 µM [%]: 93.2

compound: CC(NS(=O)(=O)c1cccs1)c1ccccc1 (stereo not drawn)
viability at 28.5 h, 10 µM [%]: 114

compound: CCOC(=O)C1CCN(S(=O)(=O)c2cccc3cccnc23)CC1
viability at 28.5 h, 10 µM [%]: 92.5

compound: Cc1ccc(S(=O)(=O)NC(C)C(=O)Nc2cc(C(F)(F)F)ccc2Cl)cc1 (stereo not drawn)
viability at 28.5 h, 10 µM [%]: 109

compound: Nc1ncncc1-c1noc([C@@H]2CCCN2c2ncccn2)n1
viability at 28.5 h, 10 µM [%]: 111

compound: O=C(O)C1(Oc2ccc3ccccc3c2)CCN(C2CCNCC2)CC1
viability at 28.5 h, 10 µM [%]: 108
